- Tested on: HT29 cells
- experiment-description: MTT cell viability assay
- Assay type: cell-based, human
- settings: Homo sapiens, HT-29; HT29, 24 h treatment; read-out: relative IC50 (cell viability)
test-readout: IC50 (µM)
Numbers only, in µM.

Exercise: // IC50 lookup, key: CCCCCCCOc1ccc(CCN2CCN(CCO)CC2)cc1
Key: 10.5

###

- target-system: CYP1A2 (Homo sapiens, UniProt P05177)
- Sequence (P05177 whole entry): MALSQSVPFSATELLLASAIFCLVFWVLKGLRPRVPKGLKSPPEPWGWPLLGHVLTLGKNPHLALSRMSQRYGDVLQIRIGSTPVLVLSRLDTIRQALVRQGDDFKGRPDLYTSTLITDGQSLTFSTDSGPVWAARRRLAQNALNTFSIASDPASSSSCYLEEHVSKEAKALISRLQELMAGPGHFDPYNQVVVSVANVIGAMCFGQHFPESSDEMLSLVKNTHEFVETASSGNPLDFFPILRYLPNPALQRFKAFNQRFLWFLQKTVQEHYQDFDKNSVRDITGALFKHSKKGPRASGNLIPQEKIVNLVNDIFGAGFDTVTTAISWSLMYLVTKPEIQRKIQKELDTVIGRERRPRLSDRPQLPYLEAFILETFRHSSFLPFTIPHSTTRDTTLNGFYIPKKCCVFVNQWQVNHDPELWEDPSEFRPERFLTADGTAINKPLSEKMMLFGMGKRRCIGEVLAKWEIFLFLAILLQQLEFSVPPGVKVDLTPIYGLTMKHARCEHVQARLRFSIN
- experiment-description: Inhibition of CYP enzymes activity, human liver microsomes
- settings: human liver microsomes 0.25 mg/mL, 10 μM, phenacetin substrate
Record form. Attribute: CYP1A2 activity (% of control activity). Fill in for each entry.
Numbers only, in %.

molecular-string: Cc1cc(CS(=O)(=O)c2ccccc2)cc(OCc2ccc(CN3CCC[C@@H]3CO)cc2)c1
uom: %
CYP1A2 activity (% of control activity): 80.9

--- query ---
Exercise: // CYP1A2 activity (% of control activity) lookup, key: CCCCCCCCc1ccc(CCC(N)(CO)CO)cc1
Key: 86.5

Data provenance: paper PMC8779255
